target: 3',5'-cyclic-AMP phosphodiesterase 4D (Homo sapiens, UniProt Q08499); assay: Inhibition of PDE4D7 (unknown origin) at 10 uM
Sequence (Q08499 whole entry): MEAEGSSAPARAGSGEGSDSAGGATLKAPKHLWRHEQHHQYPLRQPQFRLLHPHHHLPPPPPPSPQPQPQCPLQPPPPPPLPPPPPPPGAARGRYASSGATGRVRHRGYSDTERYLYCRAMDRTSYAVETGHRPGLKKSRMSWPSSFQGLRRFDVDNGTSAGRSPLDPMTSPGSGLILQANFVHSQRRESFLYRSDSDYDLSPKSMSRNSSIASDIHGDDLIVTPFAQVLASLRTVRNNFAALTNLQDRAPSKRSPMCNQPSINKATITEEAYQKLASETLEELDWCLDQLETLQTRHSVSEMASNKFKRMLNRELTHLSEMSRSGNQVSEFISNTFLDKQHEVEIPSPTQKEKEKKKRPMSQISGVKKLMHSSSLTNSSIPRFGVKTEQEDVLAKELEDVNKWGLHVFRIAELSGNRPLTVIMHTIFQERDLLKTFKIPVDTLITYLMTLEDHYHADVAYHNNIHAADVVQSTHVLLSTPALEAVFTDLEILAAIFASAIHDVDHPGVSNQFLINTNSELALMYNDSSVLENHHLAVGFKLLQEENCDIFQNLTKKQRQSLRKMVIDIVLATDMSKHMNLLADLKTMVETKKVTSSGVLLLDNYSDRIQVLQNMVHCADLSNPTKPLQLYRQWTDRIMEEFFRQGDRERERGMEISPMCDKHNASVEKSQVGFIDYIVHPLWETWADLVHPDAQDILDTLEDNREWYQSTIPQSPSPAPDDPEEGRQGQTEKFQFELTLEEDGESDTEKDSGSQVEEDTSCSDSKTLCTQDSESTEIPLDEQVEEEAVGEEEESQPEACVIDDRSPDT
reported.property: inhibition

molecule | assay.value
COc1cc2c(cc1OC1CCCC1)C(=O)C(CC1CCNCC1)C2 (stereo not drawn) | < 10%
COc1cc2c(cc1OCC(C)C)C(=O)C(Cc1ccncc1)C2 (stereo not drawn) | 34%
COc1cc2c(cc1OCC(C)C)CC(CC1CCNCC1)C2=O (stereo not drawn) | < 10%
COc1cc2c(cc1OC1CCCC1)C(=O)/C(=C/c1ccccn1)C2 | 11%
COc1cc2c(cc1OCCN1CCCC1)C(=O)C(Cc1ccncc1)C2 (stereo not drawn) | < 10%
COc1cc2c(cc1OCC1CC1)C(=O)C(CC1CCNCC1)C2 (stereo not drawn) | < 10%
COc1cc2c(cc1OC1CCCC1)C/C(=C\c1cccnc1)C2=O | < 10%
COc1cc2c(cc1OC1CCCC1)C(=O)C(CC1CCN(Cc3ccccc3)CC1)C2 (stereo not drawn) | < 10%
COc1cc2c(cc1OC1CCCC1)C(=O)C(Cc1cccnc1)C2 (stereo not drawn) | 34%
COc1cc2c(cc1OCC1CC1)CC(CC1CCN(Cc3ccccc3)CC1)C2=O (stereo not drawn) | < 10%
COc1cc2c(cc1OC1CCCC1)CC(CC1CCNCC1)C2=O (stereo not drawn) | < 10%
COc1cc2c(cc1OC1CCCC1)CC(CC1CCN(Cc3ccccc3)CC1)C2=O (stereo not drawn) | < 10%
COc1ccc(CC2Cc3cc(OC)c(OCCN4CCCCC4)cc3C2=O)cc1 (stereo not drawn) | < 10%
